tested on: lacZ under control of the tetA promoter (PtetA) in E. coli KM3; type: cell-based; settings: Table 6, reverse repressor hits; nicosulfuron, same plate assay format (20 ppm)
valueKind: relative β-galactosidase activity, inducer Ns

# molecule, assayResult
measured = [
    ("L1-34: library L1 hit with reverse repressor activity (SEQ ID NO: 1206-1213) (protein, rSuR L1-34) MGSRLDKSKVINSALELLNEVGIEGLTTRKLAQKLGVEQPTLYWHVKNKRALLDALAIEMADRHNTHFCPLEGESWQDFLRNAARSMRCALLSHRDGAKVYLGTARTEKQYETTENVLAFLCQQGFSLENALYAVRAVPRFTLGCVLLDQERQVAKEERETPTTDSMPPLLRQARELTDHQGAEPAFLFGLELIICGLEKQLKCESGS", 2.91),
    ("L1-41: library L1 hit with reverse repressor activity (SEQ ID NO: 1206-1213) (protein, rSuR L1-41) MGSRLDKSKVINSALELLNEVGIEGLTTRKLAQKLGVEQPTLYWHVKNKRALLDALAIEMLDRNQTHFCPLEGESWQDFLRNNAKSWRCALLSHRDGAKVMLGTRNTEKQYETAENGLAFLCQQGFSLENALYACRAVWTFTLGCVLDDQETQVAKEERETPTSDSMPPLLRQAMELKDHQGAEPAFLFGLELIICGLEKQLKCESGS", 2.75),
]
